src = ChEMBL document CHEMBL5058577

Below: a set of entries, each annotated with reported Population Mitotic Cells (%).
tested on: HEK-293T; assay: Multiplex assay against HEK293T; assay type: toxicity, cell-based; conditions: human, 48 h, 1 µM, compound concentration 1 uM, replicate 1
Non-standard residues stand in square brackets, D forms with d. Residues, ends and D or L forms follow the SMILES beside them.
Respond with the bare value in %.

Known Population Mitotic Cells (%) results, listed for orientation:
CCc1nn2c(C)cc(C)nc2c1Cc1ccc(-c2nnc(C3CCNCC3)o2)cc1 = 71
C[C@H](NC(=O)CNC(=O)c1cccc(Cl)c1)c1ccccc1 = 80
CSc1nc(NC2CCCC2)c([N+](=O)[O-])c(NC2CCCC2)n1 = 64
COc1c(Nc2ccc(S(C)(=O)=O)nc2C)ncnc1OC1CCN(C(=O)OC(C)C)CC1 = 75
Cc1cc(O)c(-c2ccc([C@@H](C)CN(C)C)cc2)c2c1[nH]c(=O)c1sccc12 = 13

# molecule "Cc1c(Cc2ccc3ccccc3n2)c2cc(F)ccc2n1CC(=O)O" ; its Population Mitotic Cells (%) = 73

// Population Mitotic Cells (%) value for CC(C)C[C@@H]1NC(=O)[C@@H](C(C)C)NC(=O)[C@@H]2CCCN2C(=O)[C@@H](CC(=O)O)NC(=O)[C@@H](Cc2c[nH]c3ccccc23)NC1=O [BQ-123] (cyclo(L[dW][dD]P[dV])) : 78

The molecule listed as "Cn1cc(C(=O)OCC2CCN(CCNS(C)(=O)=O)CC2)c2ccccc21" has a reported Population Mitotic Cells (%) of 74

Notebook: "CC(C)C[C@H](CO)Nc1nc(S[C@@H](C)c2ccccc2)nc2nc(N)sc12" , Population Mitotic Cells (%) read as 56

// Population Mitotic Cells (%) value for "CN1CCN(c2ccc(Nc3c4ccccc4nc4ccccc34)cc2)CC1.Cl.Cl.O" : 54
